Each record here notes measured melting point.

Below are worked cases with known answers.
smiles_repr: COc1cc(-c2cnc(C3CCC(F)(F)CC3)[nH]2)ccc1OCc1ncc(C(F)(F)F)cc1F
quantity_kind: melting point
measured_value: 157 to 159 °C

smiles_repr: COc1cc(OCc2cc(C(C)C)no2)ccc1-c1cnc(-c2ccc(F)nc2)[nH]1
quantity_kind: melting point
measured_value: 227 to 232 °C

Now, please, on to the next compound.
Data request, read-out melting point, for COc1cc(OCc2ccc(C(F)(F)F)cn2)ccc1-c1nc(-c2ccc(F)nc2)[nH]c1C
141 to 150 °C

* * *

assay: Solubility in gastric juice or intestinal juice model fluid (precipitation method using DMSO); type: physicochemical; conditions: pH 6.8, kinetic from dmso stock, 2nd fluid for Disintegration Test of Japanese Pharmacopoeia (pH: 6.8), room temperature, read-out: Solubility (μg/mL) 2nd fluid
quantity_kind: solubility at 24 h

Data request, read-out solubility at 24 h, for COc1cc(OCc2ccc(C(F)(F)F)nc2)ccc1-c1nc(-c2ccc(F)cn2)[nH]c1C
< 1.6 µg/mL

Data request, read-out solubility at 24 h, for COc1cc(OCc2ncc(Cl)cc2F)ccc1-c1cnc(-c2ccc(F)nc2)[nH]1
< 0.3 µg/mL

Data request, read-out solubility at 24 h, for Fc1ccc(-c2nc(Cl)c(-c3ccc(OCc4ncc(C(F)(F)F)cc4F)cc3)[nH]2)cn1
< 0.3 µg/mL

Data request, read-out solubility at 24 h, for COc1cc(OCc2ccncn2)ccc1-c1c[nH]c(-c2ccc(Cl)nc2)n1
< 0.3 µg/mL

Data request, read-out solubility at 24 h, for COc1cc(-c2c[nH]c(-c3ccc(F)nc3)n2)cc(OC)c1OCc1ccc(C(F)(F)F)cn1
< 9.1 µg/mL

Data request, read-out solubility at 24 h, for COc1cc(OCc2ccc(C(F)(F)F)nc2)ccc1-c1[nH]c(C2CCC(F)(F)CC2)nc1Cl
< 8.9 µg/mL

Data provenance: patent US10570117B2
